Entries and their measured pIC50 follow.
# systemName: human DGKζ (Homo sapiens)
# Construct: TVMV protease cleavage site (C); Hexa-His (C)
# testName: In vitro DGK inhibition assay, DGKζ liposome (LIPGLO) assay
# conditionLabel: read-out: Enzyme Inhibition DGKzeta IC50
# Procedure: The DGKα and DGKζ reactions were performed using either extruded liposome (DGKα and DGKζ LIPGLO assays) or detergent/lipid micelle substrate (DGKα and DGKζ assays). The reactions were carried out in 50 mM MOPS pH 7.5, 100 mM NaCl, 10 mM MgCl2, 1 μM CaCl2, and 1 mM DTT (assay buffer). The reactions using a detergent/lipid micelle substrate also contained 50 mM octyl B-D-glucopyranoside. The lipid substrate concentrations were 11 mM PS and 1 mM DAG for the detergent/lipid micelle reactions. […]
pIC50: −log10 of the molar value.
measuredProperty: pIC50

>>> measuredvalue("CN(c1c(C#N)c(=O)n(C)c2ccc(C#N)nc12)C1CCCCC1 [Example 10]")
5.40
>>> measuredvalue("Cn1c(=O)cc(N(CC2CC2)c2ccc(C3CC3)cc2)c2nc(C#N)ccc21 [Example 40]")
6.72
>>> measuredvalue("Cn1c(=O)cc(N(CC2CC2)c2ccc(OC(F)F)nc2)c2nc(C#N)ccc21 [Example 112]")
5.96
>>> measuredvalue("CC(=O)N(C)c1ccc(N(CC2CC2)c2cc(=O)n(C)c3ccc(C#N)nc23)cc1 [Example 133]")
5.36
>>> measuredvalue("COc1cc(N(CC2CC2)c2cc(=O)n(C)c3ccc(C#N)nc23)ccc1F [Example 55]")
5.66

---

# systemName: human DGKζ (Homo sapiens)
# Construct: TVMV protease cleavage site (C); Hexa-His (C)
# testName: In vitro DGK inhibition assay, DGKζ liposome (LIPGLO) assay
# conditionLabel: read-out: Enzyme Inhibition DGKzeta IC50
measuredProperty: IC50 (µM)

>>> measuredvalue("Cc1cccc(-c2cccc(N(CC3CC3)c3cc(=O)n(C)c4ccc(C#N)nc34)c2)c1")
7.2
>>> measuredvalue("Cc1ccccc1N(CC1CC1)c1cc(=O)n(C)c2ccc(C#N)nc12")
56
>>> measuredvalue("Cn1c(=O)cc(N(CC2CC2)c2cccc(OC(F)(F)F)c2)c2nc(C#N)ccc21")
26
>>> measuredvalue("CN(c1ccc(F)cc1)c1cc(=O)n(C)c2ccc(C#N)nc12")
4.9

---

# systemName: DGKzeta (Homo sapiens, UniProt Q13574)
# Sequence (Q13574 whole entry): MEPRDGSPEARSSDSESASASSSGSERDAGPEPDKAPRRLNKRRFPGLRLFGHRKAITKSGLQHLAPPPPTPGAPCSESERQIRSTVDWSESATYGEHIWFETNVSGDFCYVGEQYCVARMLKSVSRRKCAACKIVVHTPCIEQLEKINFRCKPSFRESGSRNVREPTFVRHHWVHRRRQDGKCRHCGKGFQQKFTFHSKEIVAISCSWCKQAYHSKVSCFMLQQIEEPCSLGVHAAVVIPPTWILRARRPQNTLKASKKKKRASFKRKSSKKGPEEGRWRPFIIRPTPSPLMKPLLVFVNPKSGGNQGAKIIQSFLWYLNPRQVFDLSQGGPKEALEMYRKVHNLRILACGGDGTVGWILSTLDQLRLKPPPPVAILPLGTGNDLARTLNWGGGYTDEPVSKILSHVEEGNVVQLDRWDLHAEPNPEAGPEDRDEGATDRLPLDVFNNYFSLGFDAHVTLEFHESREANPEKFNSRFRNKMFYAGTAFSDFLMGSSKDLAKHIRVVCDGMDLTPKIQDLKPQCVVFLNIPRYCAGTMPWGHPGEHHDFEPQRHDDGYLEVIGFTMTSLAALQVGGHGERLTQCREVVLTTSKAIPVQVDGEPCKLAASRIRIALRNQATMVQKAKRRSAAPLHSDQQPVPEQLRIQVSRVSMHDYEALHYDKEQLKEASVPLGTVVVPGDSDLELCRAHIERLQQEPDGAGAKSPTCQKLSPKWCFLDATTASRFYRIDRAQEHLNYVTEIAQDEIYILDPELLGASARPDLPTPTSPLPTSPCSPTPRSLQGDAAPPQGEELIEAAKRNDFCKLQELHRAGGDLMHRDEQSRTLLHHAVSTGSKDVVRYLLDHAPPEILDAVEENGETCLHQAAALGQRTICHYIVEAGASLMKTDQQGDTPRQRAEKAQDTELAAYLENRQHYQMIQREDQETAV
# testName: Translocation DGKzeta
pEC50: −log10 of the molar value.
measuredProperty: pEC50

>>> measuredvalue("Cn1c(=O)cc(N(CC2CC2)c2ccc(C3CC3)c(-c3ccc(C(N)=O)cc3)c2)c2nc(C#N)ccc21 [Example 130]")
6.80
>>> measuredvalue("CN(C)c1ccc(N(CC2CC2)c2cc(=O)n(C)c3ccc(C#N)nc23)cc1 [Example 116]")
6.96
>>> measuredvalue("Cn1c(=O)cc(N(CC2CC2)c2ccc(OC(F)F)nc2)c2nc(C#N)ccc21 [Example 112]")
7.04
>>> measuredvalue("Cc1ccc(N(CC2CC2)c2cc(=O)n(C)c3ccc(C#N)nc23)cc1 [Example 62]")
6.27
>>> measuredvalue("Cn1c(=O)cc(N(CC2CC2)c2ccc3c(c2)OCCO3)c2nc(C#N)ccc21 [Example 120]")
6.48
>>> measuredvalue("Cn1c(=O)cc(N(CC2CC2)[C@H]2CC[C@H](c3ccccc3)CC2)c2nc(C#N)ccc21 [Example 121]")
6.54
>>> measuredvalue("Cn1c(=O)cc(N(CC2CC2)c2ccc(C3CC3)c(-c3ccc(C4CC4)cc3)c2)c2nc(C#N)ccc21 [Example 125]")
7.04
>>> measuredvalue("Cn1c(=O)cc(N(CC2CC2)c2ccc(OC(F)F)cn2)c2nc(C#N)ccc21 [Example 123]")
6.19

---

# systemName: human DGKζ (Homo sapiens)
# Construct: TVMV protease cleavage site (C); Hexa-His (C)
# testName: In vitro DGK inhibition assay, DGKζ liposome (LIPGLO) assay
# conditionLabel: read-out: Enzyme Inhibition DGKzeta IC50
pIC50: −log10 of the molar value.
measuredProperty: pIC50

>>> measuredvalue("Cn1c(=O)cc(N(CC2CC2)c2ccc(C3CC3)nc2)c2nc(C#N)ccc21")
5.85
>>> measuredvalue("CN(C)C(=O)c1ccc(-c2ccc(N(CC3CC3)c3cc(=O)n(C)c4ccc(C#N)nc34)cc2)cc1")
5.70
>>> measuredvalue("Cn1c(=O)cc(N(CC2CC2)c2ccc(-c3cccc(CNS(C)(=O)=O)c3)cc2)c2nc(C#N)ccc21")
5.40
>>> measuredvalue("Cn1c(=O)cc(N(CC2CC2)c2ccc(C3CC3)c(-c3cccc(F)c3)c2)c2nc(C#N)ccc21")
4.77
>>> measuredvalue("Cn1c(=O)cc(N(CC2CC2)c2ccc(C3CC3)c(-c3ccc(F)cc3)c2)c2nc(C#N)ccc21")
4.74
>>> measuredvalue("CN(c1c(C#N)c(=O)n(C)c2ccc(Br)nc12)C1CCCCC1")
4.68
>>> measuredvalue("Cn1c(=O)cc(N(CC2CC2)c2ccc(OCC(F)(F)F)cc2)c2nc(C#N)ccc21")
6.46
>>> measuredvalue("CN(C)C(=O)c1ccc(-c2cccc(N(CC3CC3)c3cc(=O)n(C)c4ccc(C#N)nc34)c2)cc1")
4.89
>>> measuredvalue("COc1ccc(-c2cccc(N(C)c3cc(=O)n(C)c4ccc(C#N)nc34)c2)cc1")
4.49
>>> measuredvalue("Cc1cc(N(CC2CC2)c2cc(=O)n(C)c3ccc(C#N)nc23)ccc1C1CC1")
5.44
>>> measuredvalue("Cn1c(=O)cc(N(CC2CC2)c2ccc(-n3cccc3)cc2)c2nc(C#N)ccc21")
5.89
>>> measuredvalue("Cn1c(=O)nc(N(CC2CC2)c2ccc(C3CC3)cc2)c2nc(Cl)ccc21")
6.00
>>> measuredvalue("CN(c1ccc(F)c(F)c1)c1cc(=O)n(C)c2ccc(C#N)nc12")
3.92
>>> measuredvalue("Cc1ccc2c(n1)c(N(C)C(C)C1CC1)c(C#N)c(=O)n2C (centres unmarked)")
4.54
>>> measuredvalue("CC(C1CC1)N(C)c1cc(=O)n(C)c2ccc(C#N)nc12 (racemic)")
4.05
>>> measuredvalue("CN(c1ccc(C(F)(F)F)cc1)c1cc(=O)n(C)c2ccc(C#N)nc12")
5.39

---

Parameter pIC50: see the listing below.
# systemName: human DGKζ (Homo sapiens, UniProt Q13574)
# Construct: TVMV protease cleavage site (C); Hexa-His (C)
# Sequence (Q13574 with tags, fused parts or gaps isoform Q13574-4): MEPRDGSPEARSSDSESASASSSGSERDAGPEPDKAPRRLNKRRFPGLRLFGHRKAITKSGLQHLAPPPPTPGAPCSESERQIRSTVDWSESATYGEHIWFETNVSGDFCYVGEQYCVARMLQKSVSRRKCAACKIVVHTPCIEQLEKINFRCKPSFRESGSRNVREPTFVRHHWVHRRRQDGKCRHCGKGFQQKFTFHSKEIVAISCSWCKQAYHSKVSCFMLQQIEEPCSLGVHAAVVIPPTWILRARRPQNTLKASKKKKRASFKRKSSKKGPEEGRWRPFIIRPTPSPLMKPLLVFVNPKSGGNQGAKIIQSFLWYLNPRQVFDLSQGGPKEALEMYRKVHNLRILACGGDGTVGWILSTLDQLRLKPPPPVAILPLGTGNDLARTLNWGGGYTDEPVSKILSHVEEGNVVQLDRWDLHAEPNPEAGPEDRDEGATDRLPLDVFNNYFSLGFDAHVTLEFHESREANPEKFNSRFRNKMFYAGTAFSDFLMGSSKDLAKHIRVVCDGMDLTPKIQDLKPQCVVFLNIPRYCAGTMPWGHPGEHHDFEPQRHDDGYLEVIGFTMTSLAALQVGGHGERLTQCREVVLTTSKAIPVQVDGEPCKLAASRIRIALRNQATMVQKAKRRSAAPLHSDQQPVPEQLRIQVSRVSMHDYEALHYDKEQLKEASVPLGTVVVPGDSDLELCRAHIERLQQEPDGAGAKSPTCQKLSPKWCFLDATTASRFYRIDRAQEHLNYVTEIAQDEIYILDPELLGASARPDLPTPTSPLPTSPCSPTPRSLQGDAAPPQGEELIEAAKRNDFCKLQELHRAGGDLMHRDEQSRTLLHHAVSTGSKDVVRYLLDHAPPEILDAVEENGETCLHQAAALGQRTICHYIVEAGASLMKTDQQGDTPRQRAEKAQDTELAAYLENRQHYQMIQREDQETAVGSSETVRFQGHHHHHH
# testName: In vitro DGK inhibition assay, DGKζ liposome (LIPGLO) assay
# conditionLabel: read-out: Enzyme Inhibition DGKzeta IC50
pIC50: −log10 of the molar value.
measuredProperty: pIC50

>>> measuredvalue("CC(C1CC1)N(C)c1c(C#N)c(=O)n(C)c2ccc(CC#N)nc12 (centres unmarked)")
5.15
>>> measuredvalue("Cn1c(=O)cc(N(CC2CC2)c2ccc(C3CC3)cn2)c2nc(C#N)ccc21")
6.00
>>> measuredvalue("Cn1c(=O)cc(N(CC2CC2)c2ccc(C3CCC3)cc2)c2nc(C#N)ccc21")
5.89
>>> measuredvalue("COc1ccc(N(C)c2cc(=O)n(C)c3ccc(C#N)nc23)cc1")
5.49
>>> measuredvalue("Cn1c(=O)cc(N(CC2CC2)c2ccc(C3CC3)c(-c3ccc(C4CC4)cc3)c2)c2nc(C#N)ccc21")
4.49

---

# systemName: UniProt P23743
# testName: Translocation DGKalpha
measuredProperty: EC50

>>> measuredvalue("Cc1ccc(N(CC2CC2)c2cc(=O)n(C)c3ccc(C#N)nc23)cc1")
"0.75 µM"
>>> measuredvalue("Cc1cc(C2CC2)ccc1N(CC1CC1)c1cc(=O)n(C)c2ccc(C#N)nc12")
"> 3 µM"
>>> measuredvalue("Cc1cc(N(CC2CC2)c2cc(=O)n(C)c3ccc(C#N)nc23)ccc1C1CC1")
"> 3 µM"
>>> measuredvalue("CN(C)c1ccc(N(CC2CC2)c2cc(=O)n(C)c3ccc(C#N)nc23)cc1")
"> 3 µM"

---

# systemName: DGKalpha (Homo sapiens, UniProt P23743)
# Sequence (P23743 whole entry): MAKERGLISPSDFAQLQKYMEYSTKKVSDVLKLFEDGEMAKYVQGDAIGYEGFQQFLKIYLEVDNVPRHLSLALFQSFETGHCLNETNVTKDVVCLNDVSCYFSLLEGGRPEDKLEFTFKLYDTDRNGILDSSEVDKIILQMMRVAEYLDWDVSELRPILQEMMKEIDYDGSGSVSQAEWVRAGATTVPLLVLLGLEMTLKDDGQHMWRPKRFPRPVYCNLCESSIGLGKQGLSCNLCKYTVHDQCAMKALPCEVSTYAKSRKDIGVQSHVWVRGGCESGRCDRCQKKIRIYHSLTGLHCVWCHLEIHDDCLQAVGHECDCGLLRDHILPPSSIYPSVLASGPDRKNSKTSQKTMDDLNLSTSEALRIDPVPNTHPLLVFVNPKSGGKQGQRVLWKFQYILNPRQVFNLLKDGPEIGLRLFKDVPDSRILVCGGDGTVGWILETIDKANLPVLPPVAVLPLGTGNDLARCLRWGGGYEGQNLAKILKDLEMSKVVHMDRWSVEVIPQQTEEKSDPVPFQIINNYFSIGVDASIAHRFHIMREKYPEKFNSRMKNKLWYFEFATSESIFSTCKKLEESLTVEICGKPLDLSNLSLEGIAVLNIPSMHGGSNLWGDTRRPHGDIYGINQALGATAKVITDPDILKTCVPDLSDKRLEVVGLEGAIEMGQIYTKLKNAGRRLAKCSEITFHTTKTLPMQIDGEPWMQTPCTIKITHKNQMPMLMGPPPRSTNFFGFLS
# testName: Translocation DGKalpha
pEC50: −log10 of the molar value.
Listed next: entries and their corresponding pEC50.
measuredProperty: pEC50

>>> measuredvalue("Cn1c(=O)cc(N(CC2CC2)c2ccc3occc3c2)c2nc(C#N)ccc21 [Example 65]")
5.96
>>> measuredvalue("Cn1c(=O)cc(N(CC2CC2)c2ccc3c(c2)OCCO3)c2nc(C#N)ccc21 [Example 120]")
6.04

---

Entries and their pIC50 values follow.
# systemName: human DGKα (Homo sapiens, UniProt P23743)
# Construct: TVMV protease cleavage site (C); Hexa-His (C)
# Sequence (P23743 with tags, fused parts or gaps): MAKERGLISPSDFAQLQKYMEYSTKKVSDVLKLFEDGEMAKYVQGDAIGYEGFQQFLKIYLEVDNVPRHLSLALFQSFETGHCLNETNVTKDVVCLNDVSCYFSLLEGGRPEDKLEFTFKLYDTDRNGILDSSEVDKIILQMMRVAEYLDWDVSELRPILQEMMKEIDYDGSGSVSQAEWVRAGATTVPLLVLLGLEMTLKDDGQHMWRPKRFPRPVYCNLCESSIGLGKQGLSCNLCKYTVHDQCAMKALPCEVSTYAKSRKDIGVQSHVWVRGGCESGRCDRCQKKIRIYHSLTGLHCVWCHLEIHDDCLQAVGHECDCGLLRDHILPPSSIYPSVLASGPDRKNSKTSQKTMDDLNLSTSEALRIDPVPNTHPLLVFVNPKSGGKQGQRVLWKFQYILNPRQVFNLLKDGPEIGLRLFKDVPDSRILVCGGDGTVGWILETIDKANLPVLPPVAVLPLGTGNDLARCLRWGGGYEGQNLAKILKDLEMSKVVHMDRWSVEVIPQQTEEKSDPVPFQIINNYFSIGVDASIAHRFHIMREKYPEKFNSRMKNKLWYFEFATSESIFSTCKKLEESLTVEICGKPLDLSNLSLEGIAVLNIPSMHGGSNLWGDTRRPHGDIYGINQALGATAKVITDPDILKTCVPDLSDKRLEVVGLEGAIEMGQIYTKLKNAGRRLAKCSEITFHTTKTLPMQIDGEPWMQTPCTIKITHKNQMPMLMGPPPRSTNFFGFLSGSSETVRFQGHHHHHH
# testName: In vitro DGK inhibition assay, DGKα liposome (LIPGLO) assay
# conditionLabel: read-out: Enzyme Inhibition DGKalpha IC50
pIC50: −log10 of the molar value.
measuredProperty: pIC50

>>> measuredvalue("Cn1c(=O)cc(N(CC2CC2)c2ccc(-c3cccc(CNS(C)(=O)=O)c3)cc2)c2nc(C#N)ccc21")
5.25
>>> measuredvalue("Cn1c(=O)cc(N(CC2CC2)c2ccc(C(F)(F)F)cc2)c2nc(C#N)ccc21")
5.36
>>> measuredvalue("Cc1ccc(N(CC2CC2)c2cc(=O)n(C)c3ccc(C#N)nc23)cc1")
5.42
>>> measuredvalue("CN(c1nc(=O)n(C)c2ccc(Cl)nc12)C1CCCCC1")
6.85

// data source = patent US20260049076A1
